// data source = patent US8420657B2

# System: JAK1/JAK2-dependent nuclear translocation of STAT1-GFP in HT1080 fibrosarcoma cells
# Assay comment: STAT1 nuclear translocation assay (Cellomics), IFN-γ stimulated HT1080 STAT1-GFP cells
# Format: cell-based
# Run conditions: STAT1 translocation pathway
As shown below, each of these compounds has a reported pIC50 value.
Field pIC50 (float): negative decimal logarithm of the concentration in molar.

                                   compound  numeric_result
0  CC(C)Oc1ccc(Nc2ncc3ccn(-c4ccc(S(C)(=O)=O)cc4)c3n2)cc1 [Example 3]            7.01

Now look at this one.
// recorded pIC50 for Cc1cc(Nc2ncc3ccn(-c4cc(F)c(C(=O)N5CCOCC5)c(F)c4)c3n2)ccc1F [Example 89] : 6.39

====

# IC50 values compiled below
# Test system: GST-JAK2(808-1132) (Homo sapiens, UniProt O60674)
# Construct: GST-JAK2(808-1132); purchased Invitrogen (Carlsbad, USA) #4288
# Sequence (O60674 808-1132): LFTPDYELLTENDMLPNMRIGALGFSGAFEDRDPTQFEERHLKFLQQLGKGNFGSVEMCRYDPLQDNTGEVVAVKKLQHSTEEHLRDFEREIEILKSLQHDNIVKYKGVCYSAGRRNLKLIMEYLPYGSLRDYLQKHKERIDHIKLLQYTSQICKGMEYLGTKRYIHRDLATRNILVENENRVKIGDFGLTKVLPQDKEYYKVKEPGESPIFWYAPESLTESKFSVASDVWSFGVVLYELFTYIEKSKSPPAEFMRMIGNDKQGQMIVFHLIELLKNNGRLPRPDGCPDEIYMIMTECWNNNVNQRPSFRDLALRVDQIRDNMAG
# Assay comment: JAK2 kinase assay (Caliper mobility shift, LabChip 3000)
# Type: biochemical

Solved entries (count: 2):
In [3]: df
Out[3]:
                           structure_smiles  result
0  Fc1cc(-n2ccc3cnc(Nc4ccc(C5CCNCC5)nc4)nc32)cc(F)c1CN1CCOCC1  ≤ 3 nM
1  CN1CCN(Cc2cccc(Nc3ncc4ccn(-c5cc(F)c(CN6CCOCC6)c(F)c5)c4n3)c2)CC1  < 3 nM

Query CC(C)Oc1ccc(Nc2ncc3ccn(-c4ccc(C5(C(=O)N6CCOCC6)CC5)cc4)c3n2)cc1 on GST-JAK2(808-1132) (Homo sapiens, UniProt O60674); IC50 returned: < 3 nM

====

# Test system: GST-JAK2(808-1132) (Homo sapiens, UniProt O60674)
# Construct: GST-JAK2(808-1132); purchased Invitrogen (Carlsbad, USA) #4288
# Assay comment: JAK2 kinase assay (Caliper mobility shift, LabChip 3000)
# Type: biochemical
Catalogue of IC50 readings, one per entry.

>>> print(df.to_string())
                           structure_smiles  measure_name  result
0  C[C@@H]1CN(c2ncc(Nc3ncc4ccn(-c5cc(F)c(CN6CCS(=O)(=O)CC6)c(F)c5)c4n3)cc2Cl)C[C@H](C)N1          IC50  ≤ 3 nM
1  COc1cc(Nc2ncc3ccn(-c4cc(F)c(CN5CCOCC5)c(F)c4)c3n2)cnc1N1C[C@@H](C)N[C@@H](C)C1          IC50  ≤ 3 nM
2  Cc1ccc(Nc2ncc3ccn(-c4cc(F)c(CN5CCOCC5=O)c(F)c4)c3n2)cc1CN1CCNCC1          IC50  ≤ 3 nM
3  O=C(c1ccc(Nc2ncc3ccn(-c4ccc(CN5CCOCC5)c(Cl)c4)c3n2)cc1)N1CCOCC1          IC50  < 3 nM

# compound CN1CCN(Cc2cc(Nc3ncc4ccn(-c5cc(F)c(CN6CCOCC6)c(F)c5)c4n3)ccn2)CC1 ; its IC50 = ≤ 3 nM

Entry CN1CCN(Cc2cccc(Nc3ncc4ccn(-c5ccc(S(C)(=O)=O)cc5)c4n3)c2)CC1 , IC50 reported as < 3 nM

Lab book: IC50 of CN(C)CCN1CCN(Cc2cc(Nc3ncc4ccn(-c5cc(F)c(CN6CCOCC6)c(F)c5)c4n3)ccn2)CC1 noted as ≤ 3 nM

====

# Test system: cMet (Homo sapiens, UniProt P08581)
# Construct: using the recombinant domains of cMet, cKit, ALK and PDGFRalpha kinases
# Sequence (P08581 1078-1345 limits assumed): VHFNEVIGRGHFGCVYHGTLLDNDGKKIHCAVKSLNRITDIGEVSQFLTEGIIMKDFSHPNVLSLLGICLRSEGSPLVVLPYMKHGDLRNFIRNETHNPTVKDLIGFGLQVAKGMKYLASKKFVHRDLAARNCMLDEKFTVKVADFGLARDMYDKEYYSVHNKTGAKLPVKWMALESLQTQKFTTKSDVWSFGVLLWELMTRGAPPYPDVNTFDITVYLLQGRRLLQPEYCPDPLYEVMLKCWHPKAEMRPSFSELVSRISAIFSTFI
# Assay comment: cMet LanthaScreen TR-FRET kinase phosphorylation assay
# Run conditions: recombinant kinase domain
pIC50: −log10 of the molar value.
Listed next: entries and their corresponding pIC50.

In [3]: df
Out[3]:
                           structure_smiles                          test_system  result
0  Cc1ccc(Nc2ncc3ccn(-c4ccc(C(=O)N5CCN(CCO)CC5)cc4)c3n2)cc1C  cMet (Homo sapiens, UniProt P08581)  < 5.00
1  CC(C)Oc1ccc(Nc2ncc3ccn(-c4ccc(C#N)cc4)c3n2)cc1  cMet (Homo sapiens, UniProt P08581)  < 5.00

Field: next compound
Looking up CN1CCN(c2ccc(Nc3ncc4ccn(-c5cc(F)c(CN6CCS(=O)(=O)CC6)c(F)c5)c4n3)nc2)CC1 , I see its pIC50 listed as < 5.00

====

# pIC50 values compiled below
# System: JAK2-dependent nuclear translocation of STAT5-GFP in U-2 OS osteosarcoma cells
# Assay comment: STAT5 nuclear translocation assay (Cellomics), rhEpo stimulated U-2 OS STAT5-GFP cells
# Format: cell-based
# Run conditions: Homo sapiens, U2OS; STAT5 translocation pathway
Keep in mind that pIC50 stands for -log10 of concentration in molar terms.

Please review the following examples before continuing.
                                   molecule  measure_name  numeric_result
0  Cc1ccc(Nc2ncc3ccn(-c4ccc(S(=O)(=O)NC(C)(C)C)cc4)c3n2)cc1CN1C[C@@H](C)N[C@@H](C)C1 [Example 387]         pIC50            7.34
1  Cc1ccc(Nc2ncc3ccn(-c4cc(F)c(CN5CCOCC5)c(F)c4)c3n2)cc1CN1CCNCC1 [Example 332]         pIC50            7.14
2  Cc1ccc(Nc2ncc3ccn(-c4cc(F)c(CN5CCOCC5)c(F)c4)c3n2)cc1Cn1cc(CO)nn1 [Example 419]         pIC50            7.41
3  Cc1ccc(Nc2ncc3ccn(-c4cc(F)c(CN5CCS(=O)(=O)CC5)c(F)c4)c3n2)cc1CN1CCN(C)C(=O)C1 [Example 422]         pIC50            8.24
4  Fc1cc(-n2ccc3cnc(Nc4ccc(CN5CCOCC5)nc4)nc32)cc(F)c1CN1CCOCC1 [Example 480]         pIC50            7.15

CN1CCN(Cc2cc(Nc3ncc4ccn(-c5cc(F)c(CN6CCOCC6)c(F)c5)c4n3)ccc2Cl)CC1 [Example 494] has a reported pIC50 of 6.40

Looking up C[C@@H]1CN(c2ccc(Nc3ncc4ccn(-c5ccc(S(N)(=O)=O)cc5)c4n3)cn2)C[C@H](C)N1 [Example 369] , I see its pIC50 listed as 7.24

molecule C[C@@H]1CN(c2ccc(Nc3ncc4ccn(-c5ccc(NS(C)(=O)=O)cc5)c4n3)cn2)C[C@H](C)N1 [Example 380] , pIC50 observed: 7.34

In plain terms, COC1CN(Cc2cc(Nc3ncc4ccn(-c5cc(F)c(CN6CCOCC6)c(F)c5)c4n3)ccc2C)C1 [Example 405] has a documented pIC50 of 8.49

Documented pIC50 of CN1CCN(Cc2cc(Nc3ncc4ccn(-c5cc(F)c(CN6CCOCC6)c(F)c5)c4n3)ccn2)CC1=O [Example 397] : 7.89

Form field pIC50, entry Cc1ccc(Nc2ncc3ccn(-c4cc(F)c(CN5CCS(=O)(=O)CC5)c(F)c4)c3n2)cc1CN1CCC(O)C1 (racemic) [Example 425] : 8.44

====

// reported IC50 for each item listed
# Test system: GST-JAK2(808-1132) (Homo sapiens, UniProt O60674)
# Construct: GST-JAK2(808-1132); purchased Invitrogen (Carlsbad, USA) #4288
# Assay comment: JAK2 kinase assay (Caliper mobility shift, LabChip 3000)
# Assay type: biochemical

Illustrative cases are given below, each with its answer.
>>> print(df.to_string())
                           structure_smiles  measure_name  result
0  Cn1cc(Nc2ncc3ccn(-c4ccc(CC(=O)N5CCOCC5)cc4)c3n2)cn1          IC50  < 3 nM
1  CCN1CCN(C(=O)c2ccc(Nc3ncc4ccn(-c5cc(F)c(CN6CCOCC6)c(F)c5)c4n3)cc2)CC1          IC50  < 3 nM

Please turn your attention to the following entry.
Entry CC(C)Oc1ccc(Nc2ncc3ccn(-c4ccc(C(C)(C)C(=O)N5CCOCC5)cc4)c3n2)cc1 , IC50 reported as < 3 nM

====

IC50 values, listed per item
# Test system: GST-JAK2(808-1132) (Homo sapiens, UniProt O60674)
# Construct: GST-JAK2(808-1132); purchased Invitrogen (Carlsbad, USA) #4288
# Assay comment: JAK2 kinase assay (Caliper mobility shift, LabChip 3000)
# Format: biochemical

In [3]: df
Out[3]:
                           structure_smiles                               test_system  measure_name  result
0  CC(C)Oc1ccc(Nc2ncc3ccn(-c4cc(F)c(CN5CCS(=O)(=O)CC5)c(F)c4)c3n2)cc1  GST-JAK2(808-1132) (Homo sapiens, UniProt O60674)          IC50  < 3 nM

Record summary for COC1CN(Cc2c(F)cc(-n3ccc4cnc(Nc5ccc(C)c(CN6CCNCC6)c5)nc43)cc2F)C1 : reported IC50 = ≤ 3 nM

IC50 reported for this molecule Fc1cc(-n2ccc3cnc(Nc4ccnc(CN5CCN(C6CC6)CC5)c4)nc32)cc(F)c1CN1CCOCC1 : ≤ 3 nM

Lab note: measured IC50 of O=C1CN(Cc2ccc(Nc3ncc4ccn(-c5cc(F)c(CN6CCOCC6)c(F)c5)c4n3)cc2)CCN1 was < 3 nM
